test: Sample hygroscopicity test: H2O content before and after 24 hours at 100% humidity; assay type: physicochemical; details: before the test; Fischer titration
endpoint name: Initial H2O content in the sample (%)

Consider the reported Initial H2O content in the sample for these compounds:
| compound | u | Initial H2O content in the sample |
| --- | --- | --- |
| C[N+](C)(C)NCCC(=O)[O-].C[N+](C)(C)NCCC(=O)[O-].O.O=C(O)C(O)C(O)C(O)C(O)C(=O)O (stereo not shown) | % | 3.0414 |
| C[N+](C)(C)NCCC(=O)O.C[N+](C)(C)NCCC(=O)O.O=S(=O)([O-])[O-] [Meldonium sulfate (2:1)] | % | 0.313 |

A = C[N+](C)(C)NCCC(=O)O.O=C([O-])C=CC(=O)O [Meldoniuma maleate (1:1)]
B = CN(CC(=O)O)C(=N)N.C[N+](C)(C)NCCC(=O)[O-].O.O.O [Meldonium creatinate (1:1; ×3H2O)]
Of the two listed items, A and B , which carries the larger Initial H2O content in the sample figure? # reply format: chosen label
B
(B: 15.8%, A: 0.387%)

The origin of these recorded values is patent US7223797B2.
